assay: Solubility of the compound; type: physicochemical
MEASURED PARAMETER: solubility

# annotated cases, reported solubility shown
O=C(CN1CCOCC1)Nc1n[nH]c2cc(Cl)c(-c3ccccc3)cc12 = 0.028 mg/mL
CCCC(=O)Nc1n[nH]c2c(F)c(F)c(-c3ccccc3)cc12 = 0.004 mg/mL

Let me know recorded solubility for `CCCC(=O)Nc1n[nH]c2cc(Cl)c(Br)cc12` , thanks.
< 0.02 mg/mL

Please report the measured solubility for `O=C(CN1CCOCC1)Nc1n[nH]c2cc(Cl)ccc12`
< 0.02 mg/mL

In one line, give reported solubility of the entry `O=C(NCCCn1ccnc1)Nc1n[nH]c2cc(Cl)c(-c3ccccc3)cc12` .
< 0.02 mg/mL

Specify solubility for `O=C(Nc1ccccc1)Nc1n[nH]c2cc(Cl)c(-c3ccccc3)cc12` and stop.
< 0.02 mg/mL

Report measured solubility; entry is `CCCC(=O)Nc1n[nH]c2cc(-c3ccc(O)cc3)c(Br)cc12`
< 0.02 mg/mL

Specify measured solubility for `CN1CCN(CCCNC(=O)Nc2n[nH]c3cc(Cl)c(-c4ccccc4)cc23)CC1` .
> 0.208 mg/mL

Please report the measured solubility for `CCCC(=O)Nc1n[nH]c2cc(Cl)c(-c3ccoc3)cc12`
< 0.02 mg/mL

Give a short answer stating reported solubility for CC(C(=O)Nc1n[nH]c2cc(Cl)c(-c3ccccc3)cc12)N1CCCCC1 (stereo not given) .
< 0.02 mg/mL

Give solubility for `O=C(Nc1n[nH]c2cc(Cl)c(-c3ccccc3)cc12)N1CCCC1`
< 0.02 mg/mL

----------
target: Cytochrome P450 1A2 (Homo sapiens); test: Inhibition of human recombinant CYP1A2 by kinetic assay
pIC50: −log10 of the molar value.
MEASURED PARAMETER: pIC50

Examples with their reported pIC50 follow.
CCCC(=O)Nc1n[nH]c2cc(-c3ccc(O)cc3)c(Br)cc12 = 7.15
CCCC(=O)Nc1n[nH]c2cc(Cl)c(-c3ccc(O)cc3)cc12 = 7.10

(1) CCCC(=O)Nc1n[nH]c2cc(Cl)c(-c3ccccc3)cc12
(2) CCCC(=O)Nc1n[nH]c2cc(-c3cccnc3)ccc12
(3) CCCC(=O)Nc1n[nH]c2cc(Cl)c(-c3ccc(F)cc3)cc12
(4) CCCC(=O)Nc1n[nH]c2cc(-c3cc(F)cc(F)c3)ccc12
# desc sort on pIC50 across 4 molecules Output the labels ranked as instructed.
1, 3, 4, 2

----------
assay: Lipophilicity, log D at pH 7.4; assay type: physicochemical; conditions: buffer
MEASURED PARAMETER: logD

Worked set:
CCCC(=O)Nc1n[nH]c2cc(-c3ccc(O)cc3)c(Br)cc12 = 4.4
CCCC(=O)Nc1n[nH]c2cc(Cl)c(-c3ccc(O)cc3)cc12 = 3.9
O=C(CN1CCOCC1)Nc1n[nH]c2cc(Cl)c(-c3ccccc3)cc12 = 3.49

(I) CC(C(=O)Nc1n[nH]c2cc(Cl)c(-c3ccccc3)cc12)N1CCCCC1 (configuration not stated)
(II) CCC(=O)Nc1n[nH]c2cc(Cl)ccc12
Exercise: compare I and II ; which one has the greater logD? Give the chosen item's label as your response.
I
(I: 3.53, II: 2.2)

(P) CCCC(=O)Nc1n[nH]c2cc(Cl)c(-c3ccoc3)cc12
(Q) CCCC(=O)Nc1n[nH]c2c(F)c(F)c(-c3ccccc3)cc12
Given the listed records, identify the one among P and Q with higher logD. Use the label to indicate which entry you chose.
P

----------
biological target: Cytochrome P450 1A2 (Homo sapiens, UniProt P05177); assay: Inhibition of human recombinant CYP1A2
Sequence (P05177 whole entry): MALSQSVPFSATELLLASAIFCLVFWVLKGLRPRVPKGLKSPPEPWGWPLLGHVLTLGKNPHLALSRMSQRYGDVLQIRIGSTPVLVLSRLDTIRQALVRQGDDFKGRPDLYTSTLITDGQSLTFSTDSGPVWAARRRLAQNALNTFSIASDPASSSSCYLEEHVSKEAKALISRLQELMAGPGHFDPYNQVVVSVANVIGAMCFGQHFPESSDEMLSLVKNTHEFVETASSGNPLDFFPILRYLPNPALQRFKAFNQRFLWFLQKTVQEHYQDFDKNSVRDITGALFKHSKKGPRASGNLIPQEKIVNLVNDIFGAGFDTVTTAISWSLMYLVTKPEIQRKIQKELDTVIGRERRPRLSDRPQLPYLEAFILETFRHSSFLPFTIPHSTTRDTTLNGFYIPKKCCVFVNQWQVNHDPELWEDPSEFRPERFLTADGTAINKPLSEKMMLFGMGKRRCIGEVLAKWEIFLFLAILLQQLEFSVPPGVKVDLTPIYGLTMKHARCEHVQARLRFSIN
MEASURED PARAMETER: IC50 (nM)

CCCC(=O)Nc1n[nH]c2cc(Cl)c(-c3ccc(F)cc3)cc12 = 830

(I) CCCC(=O)Nc1n[nH]c2cc(-c3cc(F)cc(F)c3)ccc12
(II) CCCC(=O)Nc1n[nH]c2cc(Cl)c(Br)cc12
// pick larger IC50 from pair: I vs II Your choice should be expressed through its label.
I

(A) CCCC(=O)Nc1n[nH]c2cc(Cl)c(-c3ccc(C)cc3)cc12
(B) CCCC(=O)Nc1n[nH]c2cc(Cl)c(-c3ccc(N)cc3)cc12
(C) CCCC(=O)Nc1n[nH]c2cc(Cl)c(-c3ccc([N+](=O)[O-])cc3)cc12
Rank order required: IC50, descending. Write out the labels following the order that was asked for.
C, A, B
(C: 4460 nM, A: 1750 nM, B: 980 nM)

(I) CCCC(=O)Nc1n[nH]c2cc(-c3cccnc3)ccc12
(II) CCCC(=O)Nc1n[nH]c2cc(-c3ccsc3)ccc12
Between the two listed entries I and II , which has its IC50 at the higher number? Select an item and report its label.
II

----------
assay: Metabolic stability in mouse liver S9 fraction assessed as compound remaining after 15 mins; assay type: ADME, subcellular; details: read-out: Activity
MEASURED PARAMETER: remaining at 0.25 h (%)

CCCC(=O)Nc1n[nH]c2c(F)c(F)ccc12 = 93

(P) CCCC(=O)Nc1n[nH]c2cc(Cl)c(Br)cc12
(Q) CCCC(=O)Nc1n[nH]c2cc(-c3ccc(O)cc3)ccc12
(R) CCCC(=O)Nc1n[nH]c2c(F)c(F)c(-c3ccccc3)cc12
I would appreciate it if you could sort these 3 molecules by remaining at 0.25 h, starting from the smallest number. Return the labels ranked in the requested order, please.
Q, R, P

(1) CCCC(=O)Nc1n[nH]c2cc(Cl)c(-c3ccccc3)cc12
(2) CN1CCN(CCCNC(=O)Nc2n[nH]c3cc(Cl)c(-c4ccccc4)cc23)CC1
Of 1 and 2 , whose reported remaining at 0.25 h is numerically smaller? Kindly state the label of the option you pick.
1
(1: 40%, 2: 100%)

----------
molecular target: Cytochrome P450 2C19 (Homo sapiens, UniProt P33261); experiment: Inhibition of human recombinant CYP2C19
Sequence (P33261 whole entry): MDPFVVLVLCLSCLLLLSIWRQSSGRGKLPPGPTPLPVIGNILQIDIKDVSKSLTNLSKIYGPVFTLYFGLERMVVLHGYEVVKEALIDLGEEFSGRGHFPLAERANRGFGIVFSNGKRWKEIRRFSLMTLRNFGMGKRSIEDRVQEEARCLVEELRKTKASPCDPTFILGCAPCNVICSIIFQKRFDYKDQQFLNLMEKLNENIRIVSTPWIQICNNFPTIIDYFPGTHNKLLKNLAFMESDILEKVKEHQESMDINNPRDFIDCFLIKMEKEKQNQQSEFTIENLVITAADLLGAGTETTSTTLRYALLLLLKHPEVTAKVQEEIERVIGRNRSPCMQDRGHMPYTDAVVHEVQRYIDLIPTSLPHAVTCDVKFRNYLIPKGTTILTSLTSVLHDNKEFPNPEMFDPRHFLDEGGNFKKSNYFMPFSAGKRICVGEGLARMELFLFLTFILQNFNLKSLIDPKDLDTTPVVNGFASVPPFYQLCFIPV
MEASURED PARAMETER: IC50

CCCC(=O)Nc1n[nH]c2cc(Cl)c(-c3ccccc3)cc12 = > 10 µM

Please look at the following molecule next.
Report IC50 from Cytochrome P450 2C19 (Homo sapiens, UniProt P33261) testing of `CCCC(=O)Nc1n[nH]c2cc(-c3ccc(O)cc3)c(Br)cc12`
> 10 µM

----------
assay: Solubility of the compound; type: physicochemical; details: read-out: solubility
MEASURED PARAMETER: solubility (µg/mL)

(I) O=C(O)CCC(=O)Nc1n[nH]c2cc(Cl)ccc12
(II) CCC(=O)Nc1n[nH]c2cc(Cl)ccc12
Lab notebook, comparison: I versus II , higher solubility goes to which? Give the label under which the chosen entry appears.
I

----------
molecular target: hERG (KCNH2) (Homo sapiens); test: Inhibition of human ERG at 10 uM
Sequence (Q12809 whole entry): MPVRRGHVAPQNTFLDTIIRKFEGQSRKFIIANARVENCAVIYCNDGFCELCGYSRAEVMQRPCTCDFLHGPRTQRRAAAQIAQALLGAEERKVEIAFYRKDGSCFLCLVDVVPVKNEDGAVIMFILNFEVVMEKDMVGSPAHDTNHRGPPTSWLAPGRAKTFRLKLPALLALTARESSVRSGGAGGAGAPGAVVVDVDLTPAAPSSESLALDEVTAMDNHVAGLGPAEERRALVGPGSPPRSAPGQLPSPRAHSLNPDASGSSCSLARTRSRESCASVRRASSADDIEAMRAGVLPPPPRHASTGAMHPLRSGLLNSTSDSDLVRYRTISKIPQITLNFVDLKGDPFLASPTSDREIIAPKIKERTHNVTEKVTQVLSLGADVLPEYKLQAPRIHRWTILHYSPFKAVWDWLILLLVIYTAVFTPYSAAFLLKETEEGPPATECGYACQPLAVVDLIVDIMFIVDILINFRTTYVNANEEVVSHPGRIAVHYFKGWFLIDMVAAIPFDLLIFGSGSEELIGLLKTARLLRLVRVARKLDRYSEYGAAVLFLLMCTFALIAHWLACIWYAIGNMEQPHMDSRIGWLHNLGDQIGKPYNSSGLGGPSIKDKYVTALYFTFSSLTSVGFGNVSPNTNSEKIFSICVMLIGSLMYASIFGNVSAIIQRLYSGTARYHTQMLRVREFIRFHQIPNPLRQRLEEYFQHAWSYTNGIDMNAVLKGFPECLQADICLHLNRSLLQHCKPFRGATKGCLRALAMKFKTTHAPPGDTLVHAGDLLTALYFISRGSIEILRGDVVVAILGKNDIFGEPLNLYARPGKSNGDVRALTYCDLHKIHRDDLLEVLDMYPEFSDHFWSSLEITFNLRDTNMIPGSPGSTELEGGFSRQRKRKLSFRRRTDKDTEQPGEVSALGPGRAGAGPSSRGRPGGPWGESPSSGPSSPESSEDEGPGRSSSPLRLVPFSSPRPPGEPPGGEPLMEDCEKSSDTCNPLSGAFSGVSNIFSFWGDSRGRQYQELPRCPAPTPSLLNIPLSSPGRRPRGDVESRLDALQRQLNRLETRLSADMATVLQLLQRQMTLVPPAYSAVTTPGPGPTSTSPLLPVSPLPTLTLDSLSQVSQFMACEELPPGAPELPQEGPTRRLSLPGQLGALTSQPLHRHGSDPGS
MEASURED PARAMETER: inhibition at 10 µM (%)
Reply numerically in %, unit not repeated.

CCCC(=O)Nc1n[nH]c2cc(-c3ccc(O)cc3)c(Br)cc12 = 7

For the next question, use this compound.
Identify inhibition at 10 µM associated with the compound `CCCC(=O)Nc1n[nH]c2cc(Cl)c(-c3ccccc3)cc12`
24

----------
experiment: Metabolic stability in mouse liver S9 fraction assessed as compound remaining after 15 mins; type: ADME, subcellular; conditions: read-out: Activity
MEASURED PARAMETER: remaining at 0.25 h (%)

Answered cases to consult:
O=C(NCCCn1ccnc1)Nc1n[nH]c2cc(Cl)c(-c3ccccc3)cc12 = 85
O=C(Nc1ccccc1)Nc1n[nH]c2cc(Cl)c(-c3ccccc3)cc12 = 92

(1) CCCC(=O)Nc1n[nH]c2cc(Cl)c(-c3ccoc3)cc12
(2) O=C(Nc1n[nH]c2cc(Cl)c(-c3ccccc3)cc12)N1CCCC1
(3) CCCC(=O)Nc1n[nH]c2cc(Cl)c(-c3ccc(O)cc3)cc12
(4) CCCC(=O)Nc1n[nH]c2cc(-c3ccc(O)cc3)c(Br)cc12
Falling order of remaining at 0.25 h, please. Would you mind listing the labels in the order asked for?
2, 3, 4, 1

----------
biological target: UniProtKB Q12809
pIC50: −log10 of the molar value.
MEASURED PARAMETER: pIC50

Please indicate recorded pIC50 of `O=C(Nc1ccccc1)Nc1n[nH]c2cc(Cl)c(-c3ccccc3)cc12` measured with UniProtKB Q12809.
< 5.00

----------
molecular target: Albumin (Homo sapiens); experiment: Binding affinity to human serum albumin; format: ADME; conditions: isolated protein
Sequence (P02768 whole entry): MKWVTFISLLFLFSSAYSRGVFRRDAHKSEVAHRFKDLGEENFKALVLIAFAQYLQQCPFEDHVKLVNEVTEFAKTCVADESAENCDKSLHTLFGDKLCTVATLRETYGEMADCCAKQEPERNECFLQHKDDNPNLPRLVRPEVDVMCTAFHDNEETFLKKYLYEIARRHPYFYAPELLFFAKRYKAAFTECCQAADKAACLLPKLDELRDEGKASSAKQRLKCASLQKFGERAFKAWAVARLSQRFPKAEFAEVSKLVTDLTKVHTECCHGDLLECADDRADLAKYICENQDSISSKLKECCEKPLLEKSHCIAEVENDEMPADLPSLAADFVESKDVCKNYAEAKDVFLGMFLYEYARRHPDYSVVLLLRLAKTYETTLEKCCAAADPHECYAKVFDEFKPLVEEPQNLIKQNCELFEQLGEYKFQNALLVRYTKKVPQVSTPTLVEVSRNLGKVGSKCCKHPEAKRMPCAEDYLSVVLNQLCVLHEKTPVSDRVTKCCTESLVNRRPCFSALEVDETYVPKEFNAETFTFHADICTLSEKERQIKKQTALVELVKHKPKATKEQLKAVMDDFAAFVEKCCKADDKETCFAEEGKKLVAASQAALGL
MEASURED PARAMETER: Activity (%)

CCCC(=O)Nc1n[nH]c2cc(-c3ccc(O)cc3)c(Br)cc12 = 99.3
CCCC(=O)Nc1n[nH]c2cc(Cl)c(-c3ccccc3)cc12 = 99.4
CCC(=O)Nc1n[nH]c2cc(Cl)ccc12 = 92.8
CCCC(=O)Nc1n[nH]c2cc(-c3ccc(O)cc3)ccc12 = 97.3

These measurements were taken from ChEMBL document CHEMBL1156291.
